- SYSTEM_UNDER_TEST: aldose reductase (Rattus norvegicus)
- Construct: the lenses were excised and homogenized in cold distilled water; from tissue; host or cells: lens of male SD rats, homogenate supernatant (crude enzyme)
- TEST_SUMMARY: Inhibitory activity against aldose reductase (crude enzyme from rat lenses, NADPH oxidation at 340 nm, D,L-glyceraldehyde substrate)
- Type: biochemical
- EXPERIMENTAL_CONTEXT: pH 6.2, 10^-6 M; aldose reductase from SD rat lenses, pH 6.2, 30° C.; read-out: Percentage of inhibition (%)
ATTRIBUTE_MEASURED: inhibition at 1 µM (%)
Express your answer in %, writing the number without its unit.

CCCC(CCc1ccccc1OCC(=O)O)=C1SC(=S)NC1=O (single isomer, unassigned) [27 Isomer A] : 53.1
COc1cc(C=CC(C)=C2SC(=S)N(C)C2=O)ccc1OCC(=O)O : 65.9
O=C1NC(=S)SC1=Cc1ccc(OCCCCc2nnn[nH]2)cc1 : 43.9

[ask] # query: inhibition at 1 µM of entry COC(=O)COc1ccccc1C=C(C)C=C1SC(=S)NC1=O
[reply] 48.5

====

Measured inhibition at 10 µM of individual entries
- SYSTEM_UNDER_TEST: aldose reductase (Rattus norvegicus)
- Construct: the lenses were excised and homogenized in cold distilled water; from tissue; host or cells: lens of male SD rats, homogenate supernatant (crude enzyme)
- TEST_SUMMARY: Inhibitory activity against aldose reductase (crude enzyme from rat lenses, NADPH oxidation at 340 nm, D,L-glyceraldehyde substrate)
- Format: biochemical
- EXPERIMENTAL_CONTEXT: pH 6.2, 10^-5 M; aldose reductase from SD rat lenses, pH 6.2, 30° C.; read-out: Percentage of inhibition (%)
Supply the numeric figure in %, leaving out any unit text.

Please review the following examples before continuing.
COc1cc(C=CC(C)=C2SC(=S)NC2=O)ccc1OCC(=O)O : 92.5
COC(=O)COc1ccc(Br)cc1C=CC(C)=C1SC(=S)NC1=O : 63.9
CCOC(=O)CCC(C=Cc1cccc(O)c1)=C1SC(=S)NC1=O (single isomer, unassigned) [8 Isomer A] : 57.9
CCOC(=O)CCC(C=Cc1cccs1)=C1SC(=S)NC1=O (single isomer, unassigned) [13 Isomer A] : 56
COC(=O)COc1ccc(C(F)(F)F)cc1C=CC(C)=C1SC(=S)NC1=O : 79.9

[ask] Sample CC(C=Cc1cc(Cl)cc(Cl)c1OCC(=O)O)=C1SC(=S)NC1=O — what was its inhibition at 10 µM?
[reply] 86.6

[ask] What value of inhibition at 10 µM has been recorded for this entry: CC(C=Cc1cc(Br)cc(Br)c1OCC(=O)O)=C1SC(=S)NC1=O
[reply] 75.4

[ask] I'd like to know its inhibition at 10 µM. The compound in question is O=C(O)CCC(C=Cc1ccc(C(F)(F)F)cc1)=C1SC(=S)NC1=O (single isomer, unassigned)
[reply] 64.6

====

Listed here are compounds together with their documented inhibition at 10 µM.
- SYSTEM_UNDER_TEST: aldose reductase (Rattus norvegicus)
- Construct: the lenses were excised and homogenized in cold distilled water; from tissue; host or cells: lens of male SD rats, homogenate supernatant (crude enzyme)
- TEST_SUMMARY: Inhibitory activity against aldose reductase (crude enzyme from rat lenses, NADPH oxidation at 340 nm, D,L-glyceraldehyde substrate)
- Format: biochemical
- EXPERIMENTAL_CONTEXT: pH 6.2, 10^-5 M; aldose reductase from SD rat lenses, pH 6.2, 30° C.; read-out: Percentage of inhibition (%)
Quick reminder: number only, in %, skip the unit.

CCOC(=O)COc1ccccc1C=CC(C)=C1SC(=S)NC1=O [Example 39] : 62.6
COc1cccc(C=CC(C)=C2SC(=S)NC2=O)c1OCC(=O)O [Example 72] : 80.1
COc1cc(C=C(C)C=C2SC(=S)NC2=O)ccc1OCC(=O)O [Example 76] : 88.5
CCCC(C=Cc1ccc(C(=O)O)cc1)=C1SC(=S)NC1=O (single isomer, unassigned) [3 Isomer A] : 77.1
CCCC(=Cc1ccccc1OCC(=O)O)C=C1SC(=S)NC1=O [Example 84] : 92

[ask] Requested read-out: inhibition at 10 µM. Entry: CCOC(=O)COc1ccc(CCC(C)=C2SC(=S)NC2=O)cc1OC [Example 43]
[reply] 48.9

[ask] // returns reported inhibition at 10 µM for input COC(=O)COc1c(OC)cc(C=CC(C)=C2SC(=S)NC2=O)cc1OC [Example 48]
[reply] 69.1

[ask] Please look up its inhibition at 10 µM: CC(C=Cc1cc(C(C)C)c(OCC(=O)O)c(C(C)C)c1)=C1SC(=S)NC1=O [Example 77]
[reply] 82.8

[ask] Entry CCC(CCc1cccn1CCC(=O)O)=C1SC(=S)NC1=O [Example 34] has what inhibition at 10 µM?
[reply] 80.8
